Recorded pKd for the following binders
# Experimental system: PICK1, Q9NRD5
# Sequence (Q9NRD5 17-115): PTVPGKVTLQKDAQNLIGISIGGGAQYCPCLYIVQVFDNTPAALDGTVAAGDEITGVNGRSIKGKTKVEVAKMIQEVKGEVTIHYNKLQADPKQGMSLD
# Protocol summary: holdup assay
# Parameters: key: below the threshold = too weak to quantify, mostly under pKd 3.1 to 4
# Settings: plain residues with an end cap or a label only (N-terminal biotin on a linker: ado-ado)
Respond numerically, and do not add a unit to the figure.

>>> df
                       binder  test_result
0  QMNQTLPVQV [EPHB3, P54753]         4.35

Now for a further binder.
Per the records, this binder ( EVNETDDTKM [KCNJ1, P48048] ) has pKd equal to 4.17
